tested on: human red blood cells; test: Hemolytic assay; assay type: cell-based; conditions: 10% hemolytic activity, mean n = 2
Would you mind telling me the reported Hemolysis HC10 of each entry?

Enquiry: Can you look up the measured Hemolysis HC10 of Cc1ccc2[nH]cc(C(=O)NCCCNCCCCCCCCNCCCNC(=O)c3c[nH]c4ccc(C)cc34)c2c1 [Compound 15d] for me?
Return: >40 µM

Enquiry: Can you look up the measured Hemolysis HC10 of O=C(NCCCNCCCCCCCCNCCCNC(=O)c1c[nH]c2c(F)cccc12)c1c[nH]c2c(F)cccc12 [Compound 16d] for me?
Return: >40 µM

Enquiry: Can you look up the measured Hemolysis HC10 of Cc1ccc2[nH]cc(C(=O)NCCCNCCCCCCNCCCNC(=O)c3c[nH]c4ccc(C)cc34)c2c1 [Compound 15b] for me?
Return: >41 µM

Enquiry: Can you look up the measured Hemolysis HC10 of O=C(NCCCNCCCCCCCCCCNCCCNC(=O)c1c[nH]c2ccc(Br)cc12)c1c[nH]c2ccc(Br)cc12 [Compound 13e] for me?
Return: >33 µM

Source: paper PMC10967822
